- protocol.text: Spectral characteristics: molar extinction coefficient and specific absorbance (UV spectrophotometry in ethyl acetate)
- Format: physicochemical
- conditions.used: the 'at ...' part of the cell, 10 μg/ml
value.type: Wavelength of maximum molar extinction coefficient UVA

• c1ccc(-c2nnc(-c3ccc(-c4ccc(-c5nnc(-c6ccccc6)c(-c6ccccc6)n5)cc4)cc3)nc2-c2ccccc2)cc1 = at 330 nm
• Fc1ccc(-c2nnc(-c3ccc(-c4nnc(-c5ccc(F)cc5)c(-c5ccc(F)cc5)n4)cc3)nc2-c2ccc(F)cc2)cc1 = at 330 nm

----------
- protocol.text: Spectral characteristics: molar extinction coefficient and specific absorbance (UV spectrophotometry in ethyl acetate)
- Assay type: physicochemical
- conditions.used: 10 μg/ml, UVA band
Field: label. Allowed values: rule met (Maximum molar extinction coefficient UVA < 50000 M⁻¹ cm⁻¹) or rule not met (Maximum molar extinction coefficient UVA >= 50000 M⁻¹ cm⁻¹).

As a guide, the following entries are already answered.
- CCCCCCCCCCCCc1ccc(-c2nnc(-c3ccc(-c4nnc(-c5ccc(CCCCCCCCCCCC)cc5)c(-c5ccc(CCCCCCCCCCCC)cc5)n4)cc3)nc2-c2ccc(CCCCCCCCCCCC)cc2)cc1 [WP107]: rule not met
- Cc1ccc(-c2nnc(-c3ccc(-c4nnc(-c5ccc(C)cc5)c(-c5ccc(C)cc5)n4)cc3)nc2-c2ccc(C)cc2)cc1 [WP39]: rule met
- CC(C)(C)CC(C)(C)c1cc(Cc2cc(C(C)(C)CC(C)(C)C)cc(-n3nc4ccccc4n3)c2O)c(O)c(-n2nc3ccccc3n2)c1 [Tinosorb M ®, reference compound]: rule met
- CC(C)CCC(C)(C)c1ccc(-c2nnc(-c3ccc(-c4nnc(-c5ccc(C(C)(C)CCC(C)C)cc5)c(-c5ccc(C(C)(C)CCC(C)C)cc5)n4)cc3)nc2-c2ccc(C(C)(C)CCC(C)C)cc2)cc1 [WP151]: rule not met

Input line: Just wondering, is Maximum molar extinction coefficient UVA of Oc1ccc(-c2nnc(-c3ccc(-c4nnc(-c5ccc(O)cc5)c(-c5ccc(O)cc5)n4)cc3)nc2-c2ccc(O)cc2)cc1 [WP35] below 50000 M⁻¹ cm⁻¹?
Output line: rule met
